- target desc: MDM2 (Homo sapiens)
- Sequence (Q00987 whole entry): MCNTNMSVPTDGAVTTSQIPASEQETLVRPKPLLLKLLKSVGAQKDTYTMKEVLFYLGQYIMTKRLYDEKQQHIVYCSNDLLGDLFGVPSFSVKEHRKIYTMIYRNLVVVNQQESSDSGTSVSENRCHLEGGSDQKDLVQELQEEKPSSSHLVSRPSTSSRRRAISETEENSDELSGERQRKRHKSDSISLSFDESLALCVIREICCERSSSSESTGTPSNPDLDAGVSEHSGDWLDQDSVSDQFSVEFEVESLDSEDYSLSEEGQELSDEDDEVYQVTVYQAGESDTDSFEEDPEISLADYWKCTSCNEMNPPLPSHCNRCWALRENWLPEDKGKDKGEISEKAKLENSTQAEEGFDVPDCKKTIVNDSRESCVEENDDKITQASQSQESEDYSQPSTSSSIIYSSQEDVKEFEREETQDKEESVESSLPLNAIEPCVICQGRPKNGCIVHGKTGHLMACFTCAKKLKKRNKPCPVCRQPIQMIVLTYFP
- measurement description: MDM2 binding screen of Libraries 3 and 4: displacement of fluorescent probe F-M8 at 750 nM macrocycle
- condition parameters: Panel b, Library 3: 63 scaffolds combinatorially acylated with 15 carboxylic acids at 30 picomole scale; displacement of fluorescent peptide probe; macrocycle 750 nM
property label: fraction of fluorescent probe displaced

Past entries and their recorded results:
{"compound": "Cn1cc(C[C@@H]2NC(=O)[C@@H](CNC(=O)/C=C/c3ccc(OCc4ccccc4)cc3)NC(=O)[C@H]3CCCN(C3)C(=O)CCSSCCNC2=O)c2ccccc21", "fraction of fluorescent probe displaced": 0.008}
{"compound": "CC(Oc1cccc(Cl)c1)C(=O)NCCN1CC(=O)N[C@@H](Cc2c[nH]c3cc(Cl)ccc23)C(=O)NCCSSCCC(=O)N2CCC[C@@H](C2)C1=O (stereo partly drawn)", "fraction of fluorescent probe displaced": -0.019}
{"compound": "O=C1CCSSCCNC(=O)[C@H](Cc2c[nH]c3ccccc23)NC(=O)CN(CCNC(=O)c2ccc3ccccc3c2)C(=O)C2(CC2)CN1", "fraction of fluorescent probe displaced": 0.018}

P: O=C1CCSSCCNC(=O)[C@H](Cc2ccc3ccccc3c2)NC(=O)[C@@H](CNC(=O)C2COc3ccccc3O2)NC(=O)C2(CC2)CN1 (stereo partly drawn)
Q: Cn1cc(CC2NC(=O)C(CNC(=O)C3CC3c3ccccc3)NC(=O)C3(CC3)CNC(=O)CCSSCCNC2=O)c2ccccc21 [X-Amcp-D-Dap-Me-Trp + Acid 105]
Recorded fraction of fluorescent probe displaced values differ for P and Q ; which one is higher? Write down the label of the entry you select.
P

a: O=C1CCSSCCNC(=O)[C@@H](Cc2c[nH]c3ccccc23)NC(=O)CN(CCNC(=O)c2cccc(Oc3ccccc3)c2)C(=O)C2(CC2)CN1
b: Cn1cc(C[C@@H]2NC(=O)[C@H](CNC(=O)C3COc4ccccc4O3)NC(=O)[C@@H]3CN(CCO3)C(=O)CCSSCCNC2=O)c2ccccc21 (stereo partly drawn)
c: O=C(/C=C/c1ccc(Cl)cc1)NCCN1CC(=O)N[C@@H](Cc2ccc3ccccc3c2)C(=O)NCCSSCCC(=O)NCC2(CC2)C1=O
d: CC(Oc1cccc(Cl)c1)C(=O)NCCN1CC(=O)N[C@H](Cc2c[nH]c3ccccc23)C(=O)NCCSSCCC(=O)NCC2(CC2)C1=O (stereo partly drawn)
e: O=C(NC[C@@H]1NC(=O)[C@H]2CCCN(C2)C(=O)CCSSCCNC(=O)[C@H](Cc2c[nH]c3ccccc23)NC1=O)c1ccc(Cl)s1
Arrange the 5 entries by fraction of fluorescent probe displaced so the values rise. Give your ranking as a list of the labels in the requested order.
d, a, b, c, e
(d: 0.00133, a: 0.008, b: 0.015, c: 0.041, e: 0.208)

P: O=C1CCSSCCNC(=O)[C@H](Cc2c[nH]c3cc(Cl)ccc23)NC(=O)[C@H](CNC(=O)C2COc3ccccc3O2)NC(=O)C2(CC2)CN1 (stereo partly drawn)
Q: CN1C(=O)[C@@H](CNC(=O)/C=C/c2ccc(OCc3ccccc3)cc2)NC(=O)[C@H]2CCCN(C2)C(=O)CCSSCCNC(=O)[C@@H]1Cc1c[nH]c2ccccc12
Kindly identify which of P and Q has the larger recorded fraction of fluorescent probe displaced value. Lab note: record the label of whichever item you select.
Q

a: CN1C(=O)CN(CCNC(=O)c2ccc(Cl)cc2)C(=O)C2(CC2)CNC(=O)CCSSCCNC(=O)[C@@H]1Cc1c[nH]c2ccccc12
b: O=C(/C=C/c1ccc(Cl)cc1)NC[C@@H]1NC(=O)[C@H]2CCCN(C2)C(=O)CCSSCCNC(=O)[C@H](Cc2c[nH]c3cc(Cl)ccc23)NC1=O
Please indicate which item has the smaller measured fraction of fluorescent probe displaced: a versus b Respond with the label that goes with your answer.
a

---

- target desc: thrombin (Homo sapiens, UniProt P00734)
- Construct: consists of two polypeptide chains of 36 (light chain) and 259 amino acid
- measurement description: Thrombin inhibition screen of crude macrocycle reactions (residual thrombin activity, fluorogenic substrate Z-Gly-Gly-Arg-AMC)
- Format: biochemical
- condition parameters: 10 µM macrocycle concentration; macrocycles containing acid 14; crude reaction; original screen
Numbered stars: 1 amine (or outer) side, 2 acyl side, 3 side chain; on linkers, the order of the positions; unused ones are H or OH. Bridge positions count the residues as written; N and C are the ends. Square brackets hold non-standard residues; d marks the D form. Peptide text beside a SMILES is read from it. * marks the point of attachment. 2Thenoyl(5-Cl) = O=C(c1ccc(Cl)s1)*; Cysteamide = C(CS[*:3])N[*:1]; Api = NC1(C(=O)O)CCNCC1; Mpa = O=C(O)CCS
property label: % thrombin activity, Original screen (%)

{"molecule": "O=C1CCSSCCNC(=O)C2CCCN(C2)C(=O)C2CC(NC(=O)c3ccc(Cl)s3)CN2C(=O)C(Cc2ccc(O)cc2)N1 (stereo not drawn)", "% thrombin activity, Original screen, %": 109.6}
{"molecule": "O=C1CCSSCCNC(=O)C(Cc2ccccc2)NC(=O)C(CNC(=O)c2ccc(Cl)s2)NC(=O)c2ccc(cc2)CN1 (stereo not drawn)", "% thrombin activity, Original screen, %": 91.1}
{"molecule": "CC(C)C[C@@H]1NC(=O)[C@H]2CCCN(C2)C(=O)CCSSCCNC(=O)[C@@H](CNC(=O)c2ccc(Cl)s2)NC1=O", "% thrombin activity, Original screen, %": 97.0}
{"molecule": "CC(C)[C@@H]1NC(=O)c2ccc(cc2)CNC(=O)CCSSCCNC(=O)[C@H](CCCCNC(=O)c2ccc(Cl)s2)NC1=O [X B3 V D1]", "% thrombin activity, Original screen, %": 102.1}
{"molecule": "CC1NC(=O)C(CNC(=O)c2ccc(Cl)s2)NC(=O)CCSSCCNC(=O)c2cccc(c2)CNC1=O (stereo not drawn)", "% thrombin activity, Original screen, %": 103.5}
{"molecule": "CC(C)C[C@@H]1NC(=O)C2(CC2)CNC(=O)CCSSCCNC(=O)[C@H](CCCNC(=O)c2ccc(Cl)s2)NC1=O [X B6 L D2]", "% thrombin activity, Original screen, %": 60.0}
{"molecule": "O=C1NCCSSCCC(=O)N2CCC[C@H]2C(=O)NC2(CCN(C(=O)c3ccc(Cl)s3)CC2)C(=O)N[C@H]1Cc1c[nH]cn1 [X B1 D6 H] ([Mpa]P[Api](2Thenoyl(5-Cl))H-Cysteamide; disulfide 1-C)", "% thrombin activity, Original screen, %": 90.0}
{"molecule": "CC(C)C1NC(=O)C(NC(=O)c2ccc(Cl)s2)CSSCCNC(=O)c2cccc(c2)CNC(=O)CNC1=O (stereo not drawn)", "% thrombin activity, Original screen, %": 111.1}

I: CC[C@H](C)[C@@H]1NC(=O)CNC(=O)CCNC(=O)[C@@H](NC(=O)c2ccc(Cl)s2)CSSCCNC1=O
II: O=C1CCSSCCNC(=O)[C@H](Cc2c[nH]c3ccccc23)NC(=O)c2ccc(cc2)CNC(=O)[C@H](CNC(=O)c2ccc(Cl)s2)N1
Choose between I and II : whose measured % thrombin activity, Original screen value is numerically larger? State your choice using its label.
I

---

- target desc: MDM2 (Homo sapiens)
- measurement description: MDM2 binding screen of Libraries 3 and 4: displacement of fluorescent probe F-M8 at 750 nM macrocycle
- condition parameters: Panel b, Library 3: 63 scaffolds combinatorially acylated with 15 carboxylic acids at 30 picomole scale; displacement of fluorescent peptide probe; macrocycle 750 nM
property label: fraction of fluorescent probe displaced

Examples from the recorded data:
{"compound": "O=C1CCSSCCNC(=O)[C@H](Cc2c[nH]c3ccccc23)NC(=O)[C@@H](CNC(=O)c2ccc(Cl)cc2)NC(=O)C2(CC2)CN1", "fraction of fluorescent probe displaced": -0.00533}
{"compound": "O=C1CCSSCCNC(=O)C(Cc2c[nH]c3ccccc23)NC(=O)C(CNC(=O)C2COc3ccccc3O2)NC(=O)C2(CC2)CN1 (mixture of isomers)", "fraction of fluorescent probe displaced": 0.00133}

P: O=C(CCS(=O)(=O)c1ccccc1)NCCN1CC(=O)N[C@H](Cc2c[nH]c3ccccc23)C(=O)NCCSSCCC(=O)NCC2(CC2)C1=O
Q: O=C(NC[C@H]1NC(=O)[C@H]2CCCN(C2)C(=O)CCSSCCNC(=O)[C@H](Cc2cccc3ccccc23)NC1=O)C1COc2ccccc2O1 (some centres unmarked)
// task: argmin of fraction of fluorescent probe displaced over [ P , Q ] Your choice should be expressed through its label.
Q

---

- target desc: thrombin (Homo sapiens, UniProt P00734)
- Construct: consists of two polypeptide chains of 36 (light chain) and 259 amino acid
- measurement description: Thrombin inhibition screen of crude macrocycle reactions (residual thrombin activity, fluorogenic substrate Z-Gly-Gly-Arg-AMC)
- Assay type: biochemical
- condition parameters: 10 µM macrocycle concentration; crude reactions, Library 1a-l; scaffold AA1-AA2-AA3 combined with 1-16 or '-'
Numbered stars: 1 amine (or outer) side, 2 acyl side, 3 side chain; on linkers, the order of the positions; unused ones are H or OH. Bridge positions count the residues as written; N and C are the ends. Square brackets hold non-standard residues; d marks the D form. Peptide text beside a SMILES is read from it. * marks the point of attachment. Pyrazinoyl(5-oxo-4H) = O=C(c1c[nH]c(=O)cn1)*; Isoorotoyl = O=C(c1c[nH]c(=O)[nH]c1=O)*; Cysteamide = C(CS[*:3])N[*:1]; Orn = NCCC[C@H](N)C(=O)O; Mpa = O=C(O)CCS
property label: percent residual thrombin activity (%)

{"compound": "O=C(COc1ccccc1)NCCC[C@@H]1NC(=O)c2ccc(cc2)CNC(=O)[C@H](CO)NC(=O)CCSSCCNC1=O [S-B3-D2/13]", "unit info": "%", "percent residual thrombin activity": 119.049}
{"compound": "O=C1CCNC(=O)[C@@H](CO)NC(=O)CCSSCCNC(=O)[C@H](CCCCNC(=O)c2cnccn2)N1 [s-B2-D1/2]", "unit info": "%", "percent residual thrombin activity": 113.66}
{"compound": "C[C@H]1NC(=O)[C@H](CCCNC(=O)Cc2c[nH]c3ccccc23)NC(=O)CCSSCCNC(=O)CCNC1=O [D2-a-B2/12]", "unit info": "%", "percent residual thrombin activity": 109.862}
{"compound": "CC(C)[C@@H]1NC(=O)CCSSCCNC(=O)[C@@H]2CCCN2C(=O)[C@H](CCCCNC(=O)c2c[nH]c(=O)cn2)NC1=O [V-D1-B1/9] ([Mpa]VK(Pyrazinoyl(5-oxo-4H))P-Cysteamide; disulfide 1-C)", "unit info": "%", "percent residual thrombin activity": 107.119}
{"compound": "NCCCC[C@@H]1NC(=O)c2cccc(c2)CNC(=O)[C@H](Cc2cnc[nH]2)NC(=O)CCSSCCNC1=O [H-B5-D1/-]", "unit info": "%", "percent residual thrombin activity": 101.253}
{"compound": "CC[C@H](C)[C@@H]1NC(=O)[C@H](CCCNC(=O)c2cc(C)on2)NC(=O)c2cccc(c2)CNC(=O)CCSSCCNC1=O [B5-D2-I/3]", "unit info": "%", "percent residual thrombin activity": 102.465}
{"compound": "O=C(NCCC[C@@H]1NC(=O)[C@H](CO)NC(=O)[C@@H]2CCCN2C(=O)CCSSCCNC1=O)c1c[nH]c(=O)[nH]c1=O [B1-s-D2/11] ([Mpa]PS[Orn](Isoorotoyl)-Cysteamide; disulfide 1-C)", "unit info": "%", "percent residual thrombin activity": 111.409}
{"compound": "Cc1nnsc1C(=O)NCCCC[C@@H]1NC(=O)CCSSCCNC(=O)C2(CC2)CNC(=O)[C@H](Cc2cnc[nH]2)NC1=O [D1-H-B6/15]", "unit info": "%", "percent residual thrombin activity": 113.747}
{"compound": "COc1ccc(C(=O)NCCC[C@@H]2NC(=O)CCNC(=O)CCSSCCNC(=O)[C@H](Cc3ccc(O)cc3)NC2=O)cn1 [B2-D2-Y/10]", "unit info": "%", "percent residual thrombin activity": 105.275}
{"compound": "O=C1CCNC(=O)[C@H](CO)NC(=O)[C@H](CCCNC(=O)c2ccc(Cl)s2)NC(=O)CCSSCCN1 [D2-S-B2/14]", "unit info": "%", "percent residual thrombin activity": 105.361}
{"compound": "COc1ccc(C(=O)NCCC[C@@H]2NC(=O)[C@H](CC(C)C)NC(=O)CCNC(=O)CCSSCCNC2=O)cn1 [B2-L-D2/10]", "unit info": "%", "percent residual thrombin activity": 110.801}
{"compound": "CC[C@H](C)[C@@H]1NC(=O)CCNC(=O)[C@H](CCCNC(=O)c2c[nH]c(=O)[nH]c2=O)NC(=O)CCSSCCNC1=O [D2-B2-I/11]", "unit info": "%", "percent residual thrombin activity": 113.677}
{"compound": "CC(C)CC(=O)NCCCC[C@@H]1NC(=O)[C@H](Cc2ccccc2)NC(=O)CCSSCCNC(=O)[C@H]2CCCN(C2)C1=O [F-D1-B4/8]", "unit info": "%", "percent residual thrombin activity": 108.059}
